target: acid ceramidase (AC) (Homo sapiens); construct: endogenous in cells; assay: Immunoblot of acid ceramidase protein; assay type: cell-based; conditions: DU145 cells, one hour pretreatment, then LCL204 10 μM 6 hours
Sequence (Q13510 22-395): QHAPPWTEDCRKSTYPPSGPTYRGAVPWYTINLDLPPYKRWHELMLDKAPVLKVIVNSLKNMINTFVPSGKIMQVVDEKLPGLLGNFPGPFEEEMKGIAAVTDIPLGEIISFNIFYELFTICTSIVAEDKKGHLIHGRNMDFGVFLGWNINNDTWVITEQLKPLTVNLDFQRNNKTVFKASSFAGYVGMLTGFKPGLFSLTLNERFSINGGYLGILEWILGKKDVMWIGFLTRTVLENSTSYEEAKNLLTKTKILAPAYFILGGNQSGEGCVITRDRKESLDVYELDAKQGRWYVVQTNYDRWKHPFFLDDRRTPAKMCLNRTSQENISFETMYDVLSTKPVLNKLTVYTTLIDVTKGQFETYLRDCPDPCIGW
Where a SMILES comes first, the peptide text is derived from it. The star is where a group is joined. Cbz = O=C(OCc1ccccc1)*; CH2F = FC*
measure_name: effect of protease inhibitor pretreatment on LCL204-induced AC protein loss

compound: CC(C)C[C@@H](C=O)NC(=O)[C@H](CC(C)C)NC(=O)[C@H](CC(C)C)NC(=O)OCc1ccccc1 [MG132] (Cbz-Leu-Leu-Leu-aldehyde)
measured: blocked AC degradation

compound: COC(=O)C[C@H](NC(=O)[C@H](C)NC(=O)[C@@H](NC(=O)OCc1ccccc1)C(C)C)C(=O)CF [zVAD-fmk] (Cbz-Val-Ala-Asp(OMe)-CH2F)
measured: blocked AC degradation

compound: CCCNC(=O)[C@H]1O[C@@H]1C(=O)N[C@H](C(=O)N1CCC[C@H]1C(=O)OC)[C@@H](C)CC [CA074Me, reference compound]
measured: blocked AC degradation
